TEST SYSTEM: T1, human GFRα3 expressed with a C-terminal myc-myc-hexahistidine tag (human, UniProt O60609 32-374, biotinylated (sites not given) in ELISA format 2 and in the Octet cross-competition; not in SPR)
T1 construct: also called hGFRα3-mmh; hGFRα3-mmH
T1 sequence (O60609 other isoform, or with tags, fused parts or gaps limits assumed): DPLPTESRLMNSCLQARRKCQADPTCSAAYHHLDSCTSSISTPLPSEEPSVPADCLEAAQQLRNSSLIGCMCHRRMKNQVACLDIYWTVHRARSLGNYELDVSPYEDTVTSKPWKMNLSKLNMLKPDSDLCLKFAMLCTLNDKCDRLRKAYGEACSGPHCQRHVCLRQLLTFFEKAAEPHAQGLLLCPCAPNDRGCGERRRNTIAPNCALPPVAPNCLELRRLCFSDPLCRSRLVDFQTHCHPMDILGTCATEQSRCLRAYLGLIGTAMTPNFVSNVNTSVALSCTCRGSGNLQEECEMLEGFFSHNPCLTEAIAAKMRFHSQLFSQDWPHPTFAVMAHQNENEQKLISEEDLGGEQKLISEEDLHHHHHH
METHOD SUMMARY: blocking ELISA 2, biotin-hGFRα3-mmH to coated hARTEMIN-mmH + hRET-10His
Experimental: The equilibrated sample solutions were then transferred to the hARTEMIN-mmH-coated plate. […] Absorbance was recorded at 450 nm on a Victor X5 plate reader (Perkin Elmer) to determine the amount of free hGFRα3-hFc in the pre-equilibrated hGFRα3-hFc-antibody solutions that was able to bind to the plate coated with hARTEMIN-mmH. […] The observed absorbance in the wells containing the highest antibody concentration was used to calculate the maximum blocking percent shown in the table. […]
PROPERTY LABEL: % max blocking (%)
One number for each entry, in %.

Sample answers from the record:
H4H2294S (antibody, human IgG4, V domains shown, human IgG4 Fc (H4H)) VH: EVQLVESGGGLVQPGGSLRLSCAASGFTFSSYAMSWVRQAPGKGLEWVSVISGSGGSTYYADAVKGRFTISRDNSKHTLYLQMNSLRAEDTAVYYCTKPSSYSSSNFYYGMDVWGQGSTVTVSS VL: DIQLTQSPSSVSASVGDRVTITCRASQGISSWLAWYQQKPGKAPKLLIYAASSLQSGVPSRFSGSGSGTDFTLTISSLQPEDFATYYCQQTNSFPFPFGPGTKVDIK: 95
H4H2354S (antibody, human IgG4, V domains shown, human IgG4 Fc (H4H); also called H4H2354S-1) VH: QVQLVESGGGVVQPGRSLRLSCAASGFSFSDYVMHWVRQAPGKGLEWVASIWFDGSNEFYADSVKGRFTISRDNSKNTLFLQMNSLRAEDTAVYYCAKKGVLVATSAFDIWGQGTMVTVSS VL: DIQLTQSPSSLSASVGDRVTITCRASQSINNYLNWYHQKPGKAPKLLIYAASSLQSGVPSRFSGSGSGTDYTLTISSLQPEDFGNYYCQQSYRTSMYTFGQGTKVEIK: 97
H4H2345S (antibody, human IgG4, V domains shown, human IgG4 Fc (H4H)) VH: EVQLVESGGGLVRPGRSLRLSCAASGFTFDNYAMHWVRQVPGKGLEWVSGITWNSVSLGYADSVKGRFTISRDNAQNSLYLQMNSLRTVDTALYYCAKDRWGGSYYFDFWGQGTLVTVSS VL: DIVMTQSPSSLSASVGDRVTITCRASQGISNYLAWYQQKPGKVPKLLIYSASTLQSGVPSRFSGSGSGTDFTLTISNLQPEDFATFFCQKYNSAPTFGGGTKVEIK: 75
H4H2292S (antibody, human IgG4, V domains shown, human IgG4 Fc (H4H)) VH: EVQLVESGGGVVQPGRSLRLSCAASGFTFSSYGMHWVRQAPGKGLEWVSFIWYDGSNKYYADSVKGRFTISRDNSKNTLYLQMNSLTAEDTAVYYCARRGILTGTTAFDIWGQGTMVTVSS VL: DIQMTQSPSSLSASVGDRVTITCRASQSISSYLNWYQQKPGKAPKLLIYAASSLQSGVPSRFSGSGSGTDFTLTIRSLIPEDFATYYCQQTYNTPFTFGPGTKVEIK: 100
H4H2364S (antibody, human IgG4, V domains shown, human IgG4 Fc (H4H)) VH: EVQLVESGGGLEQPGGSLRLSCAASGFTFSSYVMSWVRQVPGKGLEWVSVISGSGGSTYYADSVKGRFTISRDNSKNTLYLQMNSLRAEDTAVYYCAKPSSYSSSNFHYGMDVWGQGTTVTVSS VL: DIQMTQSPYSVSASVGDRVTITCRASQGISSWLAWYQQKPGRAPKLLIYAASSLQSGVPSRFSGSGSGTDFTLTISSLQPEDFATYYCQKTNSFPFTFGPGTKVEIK: 100

Switching to the query record.
[ask] # % max blocking lookup, item H4H2352S (antibody, human IgG4, V domains shown, human IgG4 Fc (H4H); also called H4H2352S-1) VH: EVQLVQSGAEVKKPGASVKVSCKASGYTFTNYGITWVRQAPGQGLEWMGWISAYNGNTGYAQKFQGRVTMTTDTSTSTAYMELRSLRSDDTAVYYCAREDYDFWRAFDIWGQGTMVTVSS VL: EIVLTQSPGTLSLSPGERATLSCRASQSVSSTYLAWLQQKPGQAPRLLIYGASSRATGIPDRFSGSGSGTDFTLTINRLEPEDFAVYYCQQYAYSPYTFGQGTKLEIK
[reply] 100
